VALUE_KIND: melting point (°C)

Solved cases below.
CCOC(=O)Cc1cnc2c(NC(=O)c3c(Cl)cccc3Cl)cccc2c1	151
Cc1nc2cc(C3CCc4cncn43)ccc2[nH]1 (stereo not given)	230
Cn1cncc1C(N)(c1ccc(CN)cc1)c1ccc2c(c1)c(-c1cccc(Cl)c1)cc(=O)n2C (stereo not given)	150

(a) O=c1cc(N2CCOCC2)nc2n1CC[C@@H](C(F)(F)F)N2
(b) C=CCS(=O)(=O)c1cccnc1S(=O)(=O)NC(=O)Nc1nc(OC)cc(OC)n1
Problem: // pick larger melting point from pair: a vs b Give the label under which the chosen entry appears.
Result: b
(b: 185 °C, a: 108 °C)

====

VALUE_KIND: melting point

Below: 5 molecules and their reported melting point.
Cc1cc(C)n(-c2nccc(Nc3ccc(Cl)cc3)n2)n1	136 to 140 °C
C#CCOc1cc(N2C(=O)C3CCCCN3C2C(=O)OCC)c(F)cc1Cl (stereo unspecified)	72 to 75 °C
CCOCCOc1ccc(CCNC(=O)/C=C/c2cccs2)cc1S(N)(=O)=O	52 °C
CCCN1CCn2c(=S)[nH]c3cccc(c32)C1C (stereo unspecified)	179 °C
N=C(Nc1ccccc1)N1CCC1	116 to 119 °C

Problem: Report melting point, nothing else, for this molecule: CCC(C)(C)c1cc(C(=O)CI)cc(C(C)(C)CC)c1O
Result: 76 to 77 °C

====

VALUE_KIND: melting point

Illustrative cases are given below, each with its answer.
O=C1N(Cc2ccccn2)c2ccccc2C12COc1cc3c(cc12)OCC3 (stereo not given)	198 to 200 °C
O=C(CNC(=O)C(Cc1ccc(OCc2ccccc2)cc1)NC(=O)OCc1ccccc1)Nc1n[nH]c(=S)s1 (stereo not given)	201 to 202 °C
CC(=O)Nc1nc(-c2ccc(S(=O)(=O)CCO)cc2)cs1	258 to 260 °C

Problem: Note down melting point recorded for CC(C)Oc1n[nH]c2nc(Oc3ccc(F)cc3F)ncc12
Result: 144 to 145 °C

Problem: For the compound Cc1ccc(-c2cc(N)nn2C(=O)OC(C)(C)C)cc1 , report melting point.
Result: 147 °C

Problem: Supply melting point value. Item: O=C(O)CCCc1cc2nc(Cl)ccc2n1S(=O)(=O)c1ccc2nccnc2c1
Result: 103 to 106 °C

Problem: Dear colleague, please send me the reported melting point for O=C(O)Cc1ccc(NC(=O)C(CCc2ccccc2)NS(=O)(=O)c2ccc(Cl)cc2)cc1 (racemic) when you can.
Result: 163 to 167 °C

Problem: Indicate the recorded melting point value for this compound: COc1ccc2c(c1)C(=O)N(c1ccc3c(ccn3C)n1)C2
Result: 230 to 234 °C

Problem: Assign melting point to the following record: CCOC(=O)NCc1cccc(-c2ccnc3c(C#N)cnn23)c1
Result: 140 to 142 °C

Problem: Let me know recorded melting point for CC(=O)Cc1ccc(SCCCBr)cc1 , thanks.
Result: 40 to 41 °C

Problem: Note down melting point recorded for O=C(NO)[C@H](CNCS(=O)(=O)c1ccc(OCc2ccccc2)cc1)N1CCCCC1
Result: 102 °C

Problem: Please report the measured melting point for CCCC(Sc1cc(C(C)(C)C)c(O)c(C(C)(C)C)c1)C(=O)Nc1c(C)cccc1C (stereo not given)
Result: 137 to 140 °C

Problem: // Input: CC(C)(C)OC(=O)N[C@H]1CC[C@H](ON2C(=O)c3ccccc3C2=O)CC1 . Output its melting point only.
Result: 134 to 135 °C

Problem: Please give the documented melting point of CN1CCN(c2cccc(C(=O)N3CC=C(c4ccccc4F)CC3)n2)CC1
Result: 177 °C

Problem: Return the recorded melting point value; entry: CC(C)(C(=O)O)n1c(=O)[nH]c2cc(F)c(F)cc2c1=O
Result: 242 to 244 °C

====

Recorded melting point, one value per entry.

Observe how each entry below is paired with its result.
Cc1ncn(Nc2cccc(Cl)c2)c1-c1ccccc1	218 °C
COc1cccc(CN2CC=C(/C=C/c3ccccc3)CC2)c1	75 to 77 °C
O=c1ncc(Cl)cn1C(SCc1ccccc1)c1ccccc1 (stereo unspecified)	118 °C

Problem: Provide melting point value for the following molecule: CCOc1ccccc1OCC1(O)CCNC1 (stereo unspecified)
Result: 108 to 110 °C

Problem: Quick one: give measured melting point for Cc1n[nH]c(Cn2ccnc2C)c1Oc1cc(Cl)cc(C#N)c1
Result: 212 to 214 °C

Problem: Output measured melting point for this item: CC(=O)Oc1ccc(S(=O)(=O)ON=C2c3ccccc3-c3ccccc32)cc1
Result: 167 to 168 °C

Problem: Provide melting point value for the following molecule: NC(=O)N(O)[C@H]1CC[C@H](Oc2ccccc2)C1
Result: 134 °C

Problem: State, in one line, measured melting point of CCn1c(=O)c2c(nc(/C=C/c3cccc(OC(C)=O)c3OC(C)=O)n2C)n(CC)c1=O
Result: 228 to 230 °C

====

VALUE_KIND: melting point

Example results:
CC(C)n1c(=O)nc(-c2ccc3c(c2)CCO3)c2cc3c(cc21)OCO3	206 to 209 °C
O=C(O)c1ccc(/C=C/c2ccc3c(=O)[nH]ncc3c2)cc1	> 345 °C
O=C1CC[C@@H]2CCc3ccccc3[C@@H]2CN1Cc1ccccc1 (relative stereo)	114 to 115 °C
COc1cc(OC)cc(N2CCN(C(=S)Nc3cc(C(C)O)c(C)nc3OC)CC2)c1 (centres undefined)	189 to 190 °C
O=[N+]([O-])c1ccc(S(=O)(=O)NCCc2ccccc2)c([N+](=O)[O-])c1	127 to 128 °C

Problem: Please report melting point for the following molecule: CC(=O)OC1CSC(Oc2cncc(-c3ccnc(F)c3)c2)C(OC(C)=O)C1OC(C)=O (centres undefined)
Result: 122 to 125 °C

Problem: Quickly give me recorded melting point for CS(=O)(=O)c1ccc(C(CC2CCCC2)C(=O)Nc2nccs2)cc1S(C)(=O)=O (centres undefined)
Result: 104 to 107 °C

Problem: Note down melting point recorded for COC(=O)c1ccc(C=CC(=O)c2ccc3c(c2)C(C)(C)CCC3(C)C)cc1
Result: 89 to 91 °C

Problem: Report measured melting point; entry is CC(C)(C)c1cc(-c2nn(CC3COC(=O)O3)c3ncccc23)cc(C(C)(C)C)c1O (centres undefined)
Result: 140 to 141 °C

====

Quick list: melting point per entry.

Please review the entries below; each comes with its answer.
CCOC(=O)Nc1cccc(OC)c1[N+](=O)[O-]	131 to 132 °C
CCCCCCCCCCOc1cccc(Nc2nnc(Cc3ccncc3)c3ccccc23)c1	116 to 119 °C
O=C1c2c(O)ccc(O)c2C(=O)c2c(NCCN(CCO)C(=O)C(F)(F)F)ccc(NCCN(CCO)C(=O)C(F)(F)F)c21	162 °C
COC1=CC(=O)OC1=C(COC(C)=O)C(C)C(C)=O (stereo unspecified)	54 to 56 °C
CN1CCCCc2cc([N+](=O)[O-])ccc21	52 to 54 °C
CC(=O)c1cc([N+](=O)[O-])ccc1NC(=O)CCl	162 °C
COc1cccc(-c2nn(-c3ccccc3)c(-c3cccc(OC)c3)c2CC(=O)O)c1	129 to 131 °C
CCCn1c(=O)c2c(nc(/C=C/c3ccc(OC)c(OC)c3)n2C)n(CCC)c1=O	127 °C
CCOc1ccc(-c2[nH]c(-c3ccc([N+](=O)[O-])cc3)nc2C(=O)O)cc1	148 to 152 °C
CCCCCCCCCCCCCCCCCCOc1ccccc1CC(=O)CO	59 to 60 °C

Problem: Using known records, supply melting point for O=C1CC2(CCCC2)C(O)C(=O)N1CCCCN1CCN(c2ncccn2)CC1 (stereo unspecified)
Result: 110 °C

====

VALUE_KIND: melting point

O=c1cc(-c2ccccc2)oc2ccc(OCCCCN3CCC(O)CC3)cc12	124 to 125 °C
COc1ccc2nc(Cl)cc(CCNC(C)=O)c2c1	162 to 164 °C
CC(C)C1CCC2(C(=O)O)CCC3(C)C(CCC4C5(C)CCC(O)C(C)(C)C5CCC43C)C12 (centres undefined)	287 to 289 °C
CCOC(=O)COc1cccc(NC(=O)NC2N=C(c3ccccc3F)c3ccccc3N(CC(=O)N3CC4CCC(CC4)C3)C2=O)c1 (racemic)	156 to 158 °C
Cn1c(CCNC(=O)OCc2ccccc2)nc(-c2ccncn2)cc1=O	121 to 123 °C
O=C(C=Cc1ccc(OCc2ccccc2)c([N+](=O)[O-])c1)Nc1ccc(Cl)cc1Cl	152 to 153 °C
CCCCCCCCNP(N)(N)=O	102 to 114 °C
COc1ccc(C2CCSCC2)cc1OC1CCCC1	83 to 85 °C

# evaluate next
Problem: Give the value of melting point reported for the following: C#Cc1cc(=O)n2nc(S(=O)(=O)Cc3ccccc3)sc2n1
Result: 101 to 106 °C
